target: c-Src SH2; test: SH2 binding enrichment of the phosphorylated peptide, bacterial display (enrichment ratio); higher = better substrate or ligand; peptides without Tyr show the background;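 note: peptide library displayed on the E. coli surface as eCPX fusions, selected cells deep-sequenced, score is each peptide's frequency after selection divided by its frequency in the input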
Readout type: SH2 binding enrichment

Some solved entries appear below for comparison.
Residue string: GIPIQYPIISE [NOG_Y222_W217G]
SH2 binding enrichment: 0.498

Residue string: VMTLDYSKTVV [SETD2_Y770_V768L]
SH2 binding enrichment: 0.458

Residue string: YFCRWYRNRKS [EREG_Y144]
SH2 binding enrichment: 0.571

Residue string: KKARAYRPGIE [FLNA_Y287_G288R]
SH2 binding enrichment: 0.469

Residue string: ESSKAYERDLS [TTC37_Y1074_A1077D]
SH2 binding enrichment: 0.471

I: GSTLSYGRDGR [MATR3_Y158_P154S]
II: QKFMAYLSQGG [HLCS_Y236]
# input Record comparison, field SH2 binding enrichment: mark the lower of I and II . Answer = label.
# output I

---

target: Fes (UniProt P07332); test: phosphorylation enrichment, bacterial display (enrichment ratio); higher = better substrate or ligand; peptides without Tyr show the background
Sequence (P07332 whole entry, looked up): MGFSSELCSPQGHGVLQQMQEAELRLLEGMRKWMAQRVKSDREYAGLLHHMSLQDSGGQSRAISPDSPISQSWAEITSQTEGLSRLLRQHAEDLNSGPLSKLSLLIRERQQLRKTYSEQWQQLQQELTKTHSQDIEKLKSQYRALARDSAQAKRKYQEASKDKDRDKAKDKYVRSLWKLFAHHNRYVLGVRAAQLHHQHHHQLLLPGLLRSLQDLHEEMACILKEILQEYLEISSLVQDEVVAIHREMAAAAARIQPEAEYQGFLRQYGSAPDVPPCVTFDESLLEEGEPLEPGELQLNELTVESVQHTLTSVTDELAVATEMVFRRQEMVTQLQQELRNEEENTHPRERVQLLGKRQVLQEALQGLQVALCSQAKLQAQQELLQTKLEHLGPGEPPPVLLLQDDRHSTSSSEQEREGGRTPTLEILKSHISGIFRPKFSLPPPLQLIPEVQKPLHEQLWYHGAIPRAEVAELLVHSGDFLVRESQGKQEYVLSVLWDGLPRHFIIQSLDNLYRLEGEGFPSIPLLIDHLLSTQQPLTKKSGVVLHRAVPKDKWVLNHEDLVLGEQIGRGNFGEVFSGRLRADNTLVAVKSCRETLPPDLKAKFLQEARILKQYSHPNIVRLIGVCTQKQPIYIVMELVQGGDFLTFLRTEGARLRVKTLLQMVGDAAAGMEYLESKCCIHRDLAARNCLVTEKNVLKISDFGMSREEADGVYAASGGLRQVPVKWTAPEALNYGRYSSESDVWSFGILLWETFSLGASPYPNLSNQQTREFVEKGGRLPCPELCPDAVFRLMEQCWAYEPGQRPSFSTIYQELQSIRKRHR
Readout type: phosphorylation enrichment
Answer field: number only, no words.

Worked set:
Residue string: PLDVEYFTLQI [TP53_Y327_G325V]
Numeric result: 1.46
--
Residue string: SDGHEYIFVDP [PDGFRB_Y579_YF]
Numeric result: 0.811
--
Residue string: MCVKSYTIHFS [F5_Y2153_Y2149C_YF]
Numeric result: 1.41
--
Residue string: HDEPTYARSSK [PEAK1_Y616]
Numeric result: 1.03
--
Residue string: RIVEIYTRRLQ [GCH1_Y175_S176T]
Numeric result: 0.949
--
Residue string: ESSKAYERDLS [TTC37_Y1074_A1077D]
Numeric result: 0.771

# input Please report the measured phosphorylation enrichment for LNFNEYFRDLN [HPRT1_Y198_D194N_YF] tested on Fes (UniProt P07332).
# output 2.1

# input Write phosphorylation enrichment of SRIWVYNHFRW [BRCA2_Y2621_YF] ; system used: Fes (UniProt P07332)
# output 1.29

# input Fill: phosphorylation enrichment (Fes (UniProt P07332)) for this sequence TEGNGYISFNE [LCP1_Y28_D24E]
# output 1.01

# input Given KPGLKYVTYGN [GALNTL5_Y404] , report its phosphorylation enrichment on Fes (UniProt P07332).
# output 0.547

# input Return reported phosphorylation enrichment for target or system Fes (UniProt P07332), item RHSGSYLVTSV [APC_Y2838] .
# output 0.863

# input Would you please give the reported phosphorylation enrichment of CQAHGYFCQPI [STK11_Y156_L160P] with Fes (UniProt P07332)?
# output 0.678

# input Report its phosphorylation enrichment with Fes (UniProt P07332) as the test system: CSTIHYNFMCN [TP53_Y234_T230S_YF]
# output 0.693

# input Write down measured phosphorylation enrichment (Fes (UniProt P07332)) for this sequence. KPGLVYNKVNP [SPRED3_Y72]
# output 0.595

# input Quote phosphorylation enrichment with test system Fes (UniProt P07332) for RQAQAYRGQRV [TSHR_Y706]
# output 1.51

# input Please look at GCRSKHVGLWG [KCNQ1_Y184_Y184H] and tell me its recorded phosphorylation enrichment on Fes (UniProt P07332).
# output 0.481

# input Report phosphorylation enrichment on Fes (UniProt P07332) for this entry: VPLATYMQIYK [RPL21_Y30_R32Q]
# output 0.636

# input Report value only: phosphorylation enrichment, Fes (UniProt P07332), SRDDDYETIAM [NPY1R_Y347]
# output 1.28

# input # return phosphorylation enrichment for YQLPYYNMVPS [BMPR1A_Y458] , test system: Fes (UniProt P07332)
# output 0.802

# input Param request: phosphorylation enrichment | system Fes (UniProt P07332) | item CKLYQYYLDHL [ATRX_Y1849]
# output 1.65

# input Give phosphorylation enrichment for this entry on Fes (UniProt P07332): KLFYIYTSGTT [SLC27A4_Y245]
# output 1.37

# input System Fes (UniProt P07332). Read-out phosphorylation enrichment. Item FVPSNYVAEDR [FRK_Y104_I100V_YF] . Report value.
# output 0.827

# input Write down measured phosphorylation enrichment (Fes (UniProt P07332)) for this sequence. QNTGNYFDLFG [PTPN11_Y62_D61N_YF]
# output 1.44

---

test system: c-Src; test: phosphorylation enrichment, bacterial display (enrichment ratio); higher = better substrate or ligand; peptides without Tyr show the background
Readout type: phosphorylation enrichment
No unit in the answer, only the number.

Known results for sequences:
Residue string: KEINDYVEKGT [SERPINA1_Y184_Q180E]
phosphorylation enrichment: 0.517

Residue string: VNCHQYDGLVE [ATP2A2_Y407]
phosphorylation enrichment: 0.531

# input Could you please provide reported phosphorylation enrichment for TYVKSYTIHYS [F5_Y2153_M2148T] ? Thanks!
# output 0.44

---

Here, each record is paired with measured phosphorylation enrichment data.
tested on: c-Abl (mouse); assay: phosphorylation enrichment, bacterial display (enrichment ratio); higher = better substrate or ligand; peptides without Tyr show the background
API note: the answer field is a bare number with no unit suffix.

Observe how each entry below is paired with its result.
Residue string: LVSCAYQMARG [FGFR1_Y605_V607M]
Numeric result: 0.998

Residue string: LHRAHYDLRHT [AHSG_Y314]
Numeric result: 0.908

Residue string: QITQVYGFFHE [PPP2CA_Y127_D131H_YF]
Numeric result: 1.14

Residue string: FFSSEYHFVGG [CTSC_Y345_YF]
Numeric result: 1.71

# input Name the recorded phosphorylation enrichment of the item NNFGNYNNQSS [HNRNPA1_Y318_D314N] in your answer.
# output 0.626

# input Given AHAGEYGEEAL [HBA1_Y25_A27E] , respond with its phosphorylation enrichment.
# output 1.01

# input Please list phosphorylation enrichment recorded for the sequence RRYLYYYSYLL [PTEN_Y177_V175L]
# output 1.02

# input # return recorded phosphorylation enrichment for input KTKLGYSPLHQ [ANK1_Y735]
# output 0.691

# input // fetch phosphorylation enrichment given entry SRVTQYERNFE [SNX1_Y463_D466N]
# output 0.634

# input Note phosphorylation enrichment for the sequence shown: PSSNLYYRCLT [CNGA3_Y168_W171C]
# output 0.742

# input Report phosphorylation enrichment for EADRKYEEVAH [TPM3_Y163_R168H]
# output 0.703

---

test system: AncSZ; experiment: phosphorylation enrichment, bacterial display (enrichment ratio); higher = better substrate or ligand; peptides without Tyr show the background
Readout type: phosphorylation enrichment
Quick one: just the number, no unit, thanks!

Residue string: PDDPNYSLVDD [PSTPIP2_Y323]
System tested: AncSZ
phosphorylation enrichment: 2.13
//
Residue string: KDHPDYKFPPR [SOX10_Y171_Q174P_YF]
System tested: AncSZ
phosphorylation enrichment: 0.883
//
Residue string: MFNPYYGLFEY [NEDD4L_Y680]
System tested: AncSZ
phosphorylation enrichment: 2.18
//
Residue string: PLYRKYWPNHI [GREB1L_Y1560]
System tested: AncSZ
phosphorylation enrichment: 1.48

Let's switch to this sequence now.
# input Fill in reported phosphorylation enrichment for this entry: TFEFRYLEDQD [CNOT3_Y746_R750Q_YF]
# output 1.89

---

Parameter: phosphorylation enrichment. Scope: all listed entries.
tested on: c-Src; test: phosphorylation enrichment, bacterial display (enrichment ratio); higher = better substrate or ligand; peptides without Tyr show the background
// no unit string in output, number only

Sample answers from the record:
Residue string: RSHLPYDVTPE [IQGAP3_Y1098]
Numeric result: 1.27

Residue string: HGDDDYDDPEL [CLNK_Y69_S65G]
Numeric result: 0.477

Residue string: SSSAIYDNPNL [DCP1B_Y191]
Numeric result: 5.76

Residue string: TFGNLYGSRKQ [YIPF7_Y59_A54T_YF]
Numeric result: 1.81

Residue string: PRQRRYVFFFS [PTEN_Y174_S170R_YF]
Numeric result: 0.597

# input Answer with phosphorylation enrichment of GRQGIYKENER [GPR143_Y231_T232K] measured for c-Src.
# output 0.436

# input Look up and report phosphorylation enrichment, with c-Src as system, for LENSTYQFIHV [CRB1_Y760_R764H_YF]
# output 4.21

# input Enter phosphorylation enrichment (test system c-Src) for NPQKPYFIRLF [WAS_Y83_S82P_YF]
# output 0.373

# input Please indicate recorded phosphorylation enrichment of THLARYSDELR [APOA1_Y190_P189R] measured with c-Src.
# output 0.397

# input Write down measured phosphorylation enrichment (c-Src) for this sequence. FAELVYTSFWH [ASS1_Y322_G324S]
# output 6.82

# input State the measured phosphorylation enrichment (c-Src) of VIKDKYPKVRF [APTX_Y209_A212V_YF]
# output 0.452

# input Identify measured phosphorylation enrichment obtained with c-Src for ERKQTYGSCRK [LACTB_Y473] .
# output 0.334

# input Look up and report phosphorylation enrichment, with c-Src as system, for FADIAYNFRHG [PAH_Y166_YF]
# output 0.532

# input Fill in: phosphorylation enrichment on c-Src, entry VIKDKYPKAHY [APTX_Y209_R213H]
# output 0.377

# input Under c-Src, report phosphorylation enrichment for GGKFSYLKVGH [GRM3_Y480_YF]
# output 0.411

# input // fetch phosphorylation enrichment for QNTGVYFDLFG [PTPN11_Y62_D61V_YF] ; system: c-Src
# output 2.02

# input Give c-Src phosphorylation enrichment for the following sequence: PLYRKYWPNHI [GREB1L_Y1560]
# output 0.882

# input # lookup: c-Src phosphorylation enrichment, key = KLPYLYDDPFS [GPX2_Y127_P126L]
# output 0.906

# input State phosphorylation enrichment on c-Src. Entry: GTSLIYWILFT [G6PC3_Y214_T216I]
# output 2.67

# input # assay system c-Src: give phosphorylation enrichment of ASELGYQFQAI [UROD_Y133_V134Q]
# output 0.46

# input Report measured phosphorylation enrichment on c-Src; entry: SKEPYYVRCIK [MYO1D_Y586]
# output 0.451

# input Report its phosphorylation enrichment with c-Src as the test system: MVIPNYSSWTE [UROC1_Y185_R188W]
# output 0.719

# input Find the measured phosphorylation enrichment of LIDGYYRLTAD [JAK2_Y373] with c-Src as test system.
# output 0.899

# input # return phosphorylation enrichment of GINDDYGQLKN [NBN_Y679] (system: c-Src)
# output 0.613

# input Under c-Src: report phosphorylation enrichment of DSRRDYVSQFE [APOA1_Y53_G50R] .
# output 0.43

# input Enter phosphorylation enrichment (test system c-Src) for ENRKFYMDLKE [PURA_Y156_YF]
# output 0.375

# input State, for c-Src, measured phosphorylation enrichment of the sequence listed here: RILENYGADID [DNAH5_Y596_L591R]
# output 0.56

# input Check c-Src data and give phosphorylation enrichment for KNRDVYSSDYF [USP24_Y2134] .
# output 2.67

# input Give c-Src phosphorylation enrichment for the following sequence: PDMHSYMVRYN [GRIN2D_Y732]
# output 0.782
